Target of assay: KDR kinase (790-1356 AA) (Homo sapiens (Human))
Sequence (P35968 790-1356): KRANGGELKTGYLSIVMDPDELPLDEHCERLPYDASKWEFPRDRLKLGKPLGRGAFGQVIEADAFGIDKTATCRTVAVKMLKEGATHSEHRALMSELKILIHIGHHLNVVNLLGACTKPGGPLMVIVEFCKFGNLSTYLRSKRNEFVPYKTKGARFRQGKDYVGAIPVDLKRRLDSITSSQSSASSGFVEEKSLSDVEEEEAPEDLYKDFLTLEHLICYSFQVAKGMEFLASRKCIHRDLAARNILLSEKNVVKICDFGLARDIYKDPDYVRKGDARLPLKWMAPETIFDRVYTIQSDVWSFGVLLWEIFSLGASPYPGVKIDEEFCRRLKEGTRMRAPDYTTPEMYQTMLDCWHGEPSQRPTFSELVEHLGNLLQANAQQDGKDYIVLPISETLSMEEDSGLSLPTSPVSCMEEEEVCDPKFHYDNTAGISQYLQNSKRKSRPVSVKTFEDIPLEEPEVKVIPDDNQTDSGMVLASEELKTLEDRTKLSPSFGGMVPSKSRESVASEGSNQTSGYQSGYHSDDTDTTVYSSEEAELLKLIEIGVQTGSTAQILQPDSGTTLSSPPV
Protocol summary: Inhibitory activity at KDR kinase (Lance Ultra Ulight-TK assay)
Assay type: biochemical
pIC50: −log10 of the molar value.
Measured property: pIC50

In plain terms, Cc1ccc(Oc2ccnc(NC(=O)C3CC3)c2)cc1NC(=O)Nc1cccc(C(F)(F)F)c1 has a documented pIC50 of 8.04

The recorded pIC50 for Cc1cc(NC(=O)Nc2ccc(Cl)c(C(C)(F)F)c2)ccc1Oc1ccnc(NC(=O)C2CC2)c1 is 7.87

The compound listed as O=C(Nc1cncc(C(F)(F)F)c1)Nc1ccc(Oc2ccnc(NC(=O)C3CC3)c2)cc1F shows pIC50 equal to 7.97

1 = Cc1cc(NC(=O)Nc2cccc(OC(F)(F)F)c2)ccc1Oc1cc(NC(=O)C2CC2)ncn1
2 = Cc1cc(Oc2ccnc(NC(=O)C3CC3)c2)ccc1NC(=O)Nc1ccc(Cl)c(C(C)(F)F)c1
Q: // pick min by pIC50: 1 , 2 Pick one; state its label.
Result: 2

---

Test system: PLC-PRF-5 cells
Protocol summary: Inhibition of proliferation of PLC-PRF-5 cells (ATPlite)
Format: cell-based
Reported conditions: Homo sapiens, PLC-PRF-5, PLC-PRF-5 cells; read-out: PLC-PRF-5 cell proliferation IC50
Measured property: IC50 (µM)
Express it in µM; write the number only.

Take a look at these entries with their results.
Lab entry: PLC-PRF-5 cells assay, compound C=CC(=O)Nc1cc(NC(=O)Nc2ccc(Oc3ccnc(NC(=O)C4CC4)c3)c(F)c2)cc(C(F)(F)F)c1 , IC50 = 0.998

Given the compound CC(=O)Nc1cc(NC(=O)Nc2ccc(Oc3ccnc(NC(=O)C4CC4)c3)c(F)c2)cc(C(F)(F)F)c1 and test system PLC-PRF-5 cells, the measured IC50 is 0.752

Entry CC(F)(F)c1cc(NC(=O)Nc2ccc(Oc3ccnc(NC(=O)C4CC4)c3)cc2)ccc1Cl : IC50 on PLC-PRF-5 cells = 0.8

Now look at this entry.
Bench note, PLC-PRF-5 cells: entry O=C(Nc1cc(NC(=O)[C@@H]2CCCN2)cc(C(F)(F)F)c1)Nc1ccc(Oc2ccnc(NC(=O)C3CC3)c2)c(F)c1 , its IC50 = 1.04

---

Target of assay: KDR kinase (790-1356 AA) (Homo sapiens (Human))
Measured property: IC50 (nM)

Consider the worked cases shown below.
Reported IC50 ( Cc1cc(Oc2cc(NC(=O)C3CC3)ncn2)ccc1NC(=O)Nc1cc(N2CCOCC2)cc(C(F)(F)F)c1 ) = 12.9

# compound Cc1cc(Oc2cc(NC(=O)C3CC3)ncn2)ccc1NC(=O)Nc1ccc(F)c(C(C)(F)F)c1 ; its IC50 = 13.3

So, O=C(Nc1ccc(Oc2ccnc(NC(=O)C3CC3)c2)cc1)Nc1ccc(Cl)c(C(F)(F)F)c1 ? Its IC50 was 10.2

I = Cc1ccc(Oc2ccnc(NC(=O)C3CC3)c2)cc1NC(=O)Nc1ccc(F)c(C(C)(F)F)c1
II = N#Cc1cc(NC(=O)Nc2ccc(Oc3ccnc(NC(=O)C4CC4)c3)cc2)cc(C(F)(F)F)c1
Q: // compare measured IC50 between I and II ; output the lower one In your reply, give the label of the chosen option.
Result: II

1 = CC(F)(F)c1cc(NC(=O)Nc2ccc(Oc3cc(NC(=O)C4CC4)ncn3)cc2F)ccc1Cl
2 = Cc1cc(Oc2cc(NC(=O)C3CC3)ncn2)c(F)cc1NC(=O)Nc1ccc(Cl)c(C(C)(F)F)c1
Q: Kindly compare 1 with 2 and tell me which has the lower IC50 figure. // caller expects the label of the chosen entry
Result: 1

I = Cc1cc(Oc2ccnc(NC(=O)C3CC3)c2)ccc1NC(=O)Nc1cc(C(C)(F)F)ccc1F
II = CC(F)(F)c1cc(NC(=O)Nc2ccc(Oc3ccnc(NC(=O)C4CC4)c3)cc2F)ccc1F
Q: Larger number for IC50: I , or II ? Selection: enter the item's label.
Result: II
(II: 14.9 nM, I: 8.3 nM)
